Assayed Target: Nociceptin receptor (Homo sapiens)
Measurement Notes: Displacement of [125I][Tyr14]N/OFQ from ORL1 receptor transfected in CHO cells
Assay type: cell-based
Metric Name: IC50

# Molecule, IC50
rows = [
    ("CN(C)CCc1ccc2[nH]c(-c3nc(CCc4ccc(Cl)cc4)no3)cc2c1", "> 1000 nM"),
    ("CN(C)CCc1cccc2[nH]c(-c3nc(CCC4CCCC4)no3)cc12", "580 nM"),
    ("CN(C)CCc1cccc2[nH]c(-c3nc(CCCC4CCCCC4)no3)cc12", "71 nM"),
    ("Clc1ccc(CCc2noc(-c3cc4c(CCN5CCCC5)cccc4[nH]3)n2)cc1", "568 nM"),
    ("CCCCc1noc(-c2cc3c(CCN(C)C)cccc3[nH]2)n1", "> 1000 nM"),
    ("Clc1ccc(CCc2noc(-c3cc4c(CCN5CCOCC5)cccc4[nH]3)n2)cc1", "> 1000 nM"),
]

# get_value(readout= IC50, system= Nociceptin receptor (Homo sapiens)) for CN(C)CCc1cccc2[nH]c(-c3nc(CCC4CC5CCC4C5)no3)cc12 (configuration not stated) 440 nM

# get_value(readout= IC50, system= Nociceptin receptor (Homo sapiens)) for `CN(C)CCc1cccc2[nH]c(-c3nc(CCC(C)(C)C)no3)cc12` > 1000 nM

# get_value(readout= IC50, system= Nociceptin receptor (Homo sapiens)) for `CN(C)CCc1cccc2[nH]c(-c3nc(CCc4ccc(N(C)C)cc4)no3)cc12` > 1000 nM

# get_value(readout= IC50, system= Nociceptin receptor (Homo sapiens)) for `CN(C)CCc1cccc2cc(-c3nc(CCc4ccc(Cl)cc4)no3)[nH]c12` > 1000 nM

# get_value(readout= IC50, system= Nociceptin receptor (Homo sapiens)) for `CN(C)CCc1cccc2[nH]c(-c3nc(Cc4ccc(Cl)cc4)no3)cc12` 450 nM

====

Assayed Target: Nociceptin receptor (Homo sapiens, UniProt P41146)
Sequence (P41146 whole entry): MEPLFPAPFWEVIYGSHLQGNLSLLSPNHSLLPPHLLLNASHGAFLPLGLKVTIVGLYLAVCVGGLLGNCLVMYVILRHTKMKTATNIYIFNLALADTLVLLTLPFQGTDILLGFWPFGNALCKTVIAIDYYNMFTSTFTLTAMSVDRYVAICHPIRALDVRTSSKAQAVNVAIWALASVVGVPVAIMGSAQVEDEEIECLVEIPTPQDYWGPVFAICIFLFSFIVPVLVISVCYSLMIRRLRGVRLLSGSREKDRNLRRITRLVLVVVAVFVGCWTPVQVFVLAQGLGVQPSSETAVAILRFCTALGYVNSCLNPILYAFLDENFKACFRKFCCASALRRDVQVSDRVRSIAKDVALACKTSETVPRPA
Measurement Notes: Displacement of [125I][Tyr14]N/OFQ from ORL1 receptor transfected in CHO cells
Type: cell-based
Metric Name: IC50 (nM)
Respond with the bare value in nM.

# Smiles Repr, Quantity Unit, IC50
data = [
    ("CN(C)CCOCCc1cccc2[nH]c(-c3nc(CCc4ccc(Cl)cc4)no3)cc12", "nM", 97),
]

Consider the additional molecule presented here.
# get_value(readout= IC50, system= Nociceptin receptor (Homo sapiens, UniProt P41146)) for `Cc1ccc(CCc2noc(-c3cc4c(CCN(C)C)cccc4[nH]3)n2)cc1` 230

====

Quick list: inhibition per entry.
Assayed Target: UniProt:P41146
Measurement Notes: Displacement of [125I][Tyr14]N/OFQ from ORL1 receptor transfected in CHO cells at 1 uM
Format: cell-based
Respond with the bare value in %.

# Smiles Repr, inhibition, %
data = [
    ("CN(C)CCc1cccc2[nH]c(-c3nc(CCc4ccc(N(C)C)cc4)no3)cc12", 44),
    ("CN(C)CCc1cccc2[nH]c(-c3nnc(CCc4ccc(Cl)cc4)o3)cc12", 39),
    ("CN(C)CCc1cccc2[nH]c(-c3nc(CCCc4ccc(Cl)cc4)no3)cc12", 49),
]

Consider the additional compound presented here.
Looking for the measured inhibition of `CN(C)CCc1cccc2[nH]c(C(=O)NCCCc3ccc(Cl)cc3)cc12` , can you help? 41

====

Assayed Target: Nociceptin receptor (Homo sapiens, UniProt P41146)
Measurement Notes: Displacement of [125I][Tyr14]N/OFQ from ORL1 receptor transfected in CHO cells at 1 uM
Type: cell-based
Quick list: inhibition per entry.
Returns: string containing the numeric result and its unit.

# get_value(readout= inhibition, system= Nociceptin receptor (Homo sapiens, UniProt P41146)) for `CN(C)CCc1ccc2cc(-c3nc(CCc4ccc(Cl)cc4)no3)[nH]c2c1` 22%

# get_value(readout= inhibition, system= Nociceptin receptor (Homo sapiens, UniProt P41146)) for `CN(C)CCc1ccc2[nH]c(-c3nc(CCc4ccc(Cl)cc4)no3)cc2c1` 3%

====

Quick list: pIC50 per entry.
Assayed Target: Nociceptin receptor (Homo sapiens, UniProt P41146)
Measurement Notes: Antagonist activity against ORL1 receptor by GTPgammaS assay
Type: functional
pIC50 (log units): -log10 of the concentration in mol/L.

# Smiles Repr, pIC50
data = [
    ("CN(C)CCOCCc1cccc2[nH]c(-c3nc(CCc4ccc(Cl)cc4)no3)cc12", 6.35),
    ("CN(C)CCc1cccc2[nH]c(-c3nc(CCc4ccc(Cl)cc4)no3)cc12", 6.20),
]

Consider the additional compound presented here.
Looking for the measured pIC50 of `CN1CCC(c2cccc3[nH]c(-c4nc(CCc5ccc(Cl)cc5)no4)cc23)CC1` , can you help? 6.05

====

Assayed Target: Nociceptin receptor (Homo sapiens)
Measurement Notes: Displacement of [125I][Tyr14]N/OFQ from ORL1 receptor transfected in CHO cells
Assay type: cell-based
Metric Name: pIC50
pIC50 (log units): -log10 of the concentration in mol/L.

Below, each entry is followed by its recorded pIC50 result.
# Smiles Repr, pIC50
records = [
    ("CN(C)CCc1cccc2[nH]c(-c3noc(CCc4ccc(Cl)cc4)n3)cc12", 6.22),
    ("CN(C)Cc1cccc2[nH]c(-c3nc(CCc4ccc(Cl)cc4)no3)cc12", 7.21),
    ("CN(C)CCCc1cccc2[nH]c(-c3nc(CCc4ccc(Cl)cc4)no3)cc12", 6.68),
]

Looking for the measured pIC50 of `CN1CCN(c2cccc3[nH]c(-c4nc(CCc5ccc(Cl)cc5)no4)cc23)CC1` , can you help? 6.92

Looking for the measured pIC50 of `CN(C)CCc1cccc2[nH]c(-c3nc(CCc4ccc(F)cc4)no3)cc12` , can you help? 6.35

Looking for the measured pIC50 of `CN(C)CCc1cccc2[nH]c(-c3nc(CCc4ccc(Cl)cc4)no3)cc12` , can you help? 7.02

Looking for the measured pIC50 of `CN(C)CCc1cccc2[nH]c(-c3nc(CC4CCCCC4)no3)cc12` , can you help? 6.36

Looking for the measured pIC50 of `CN(C)CCc1cccc2[nH]c(-c3nc(CCC4CCCCC4)no3)cc12` , can you help? 6.85

Looking for the measured pIC50 of `CN(C)CCc1cccc2[nH]c(-c3nc(CCc4ccc(C(F)(F)F)cc4)no3)cc12` , can you help? 7.31

Looking for the measured pIC50 of `CCN(C)CCc1cccc2[nH]c(-c3nc(CCc4ccc(Cl)cc4)no3)cc12` , can you help? 7.24

Looking for the measured pIC50 of `CN1CCN(c2[nH]ccc3nc(-c4nc(CCc5ccc(Cl)cc5)no4)cc2-3)CC1` , can you help? 7.40

Looking for the measured pIC50 of `COc1ccc(CCc2noc(-c3cc4c(CCN(C)C)cccc4[nH]3)n2)cc1` , can you help? 6.25

Looking for the measured pIC50 of `CN(C)CCc1cccc2[nH]c(-c3nc(COc4ccc(Cl)cc4)no3)cc12` , can you help? 6.39

Looking for the measured pIC50 of `CN1CCC(c2cccc3[nH]c(-c4nc(CCc5ccc(Cl)cc5)no4)cc23)CC1` , can you help? 7.21

====

Assayed Target: Nociceptin receptor (Homo sapiens, UniProt P41146)
Measurement Notes: Displacement of [125I][Tyr14]N/OFQ from ORL1 receptor transfected in CHO cells at 1 uM
Type: cell-based
Would you mind classing the entries by inhibition? Ranges: low bracket: < 10%; middle bracket: ≥ 10% and < 30%; high bracket: ≥ 30%

# Molecule, Class Label
measured = [
    ("CCCCc1noc(-c2cc3c(CCN(C)C)cccc3[nH]2)n1", "high bracket"),
    ("CN(C)CCc1cccc2[nH]c(C(=O)NCCc3ccc(Cl)cc3)cc12", "middle bracket"),
    ("CN(C)CCc1cccc2[nH]c(-c3nc(CCCN4CCCC4)no3)cc12", "low bracket"),
]

Exam item: assign `CN(C)CCc1cccc2[nH]c(-c3nc(CCC(C)(C)C)no3)cc12` to the correct category. middle bracket

====

Assayed Target: Nociceptin receptor (Homo sapiens, UniProt P41146)
Measurement Notes: Antagonist activity against ORL1 receptor by GTPgammaS assay
Format: functional
Quick list: pIC50 per entry.
pIC50 (log units): -log10 of the concentration in mol/L.

Below, each entry is followed by its recorded pIC50 result.
# Smiles Repr, pIC50
data = [
    ("CN1CCN(c2[nH]ccc3nc(-c4nc(CCc5ccc(Cl)cc5)no4)cc2-3)CC1", 6.70),
    ("CCN(C)CCc1cccc2[nH]c(-c3nc(CCc4ccc(Cl)cc4)no3)cc12", 6.65),
]

Looking for the measured pIC50 of `CN(C)CCc1cccc2[nH]c(-c3nc(CCCC4CCCCC4)no3)cc12` , can you help? 6.53

Looking for the measured pIC50 of `CN(C)CCc1cccc2[nH]c(-c3nc(CCc4ccc(C(F)(F)F)cc4)no3)cc12` , can you help? 6.38

Looking for the measured pIC50 of `CN(C)Cc1cccc2[nH]c(-c3nc(CCc4ccc(Cl)cc4)no3)cc12` , can you help? 6.63
